Measured zone of inhibition at 100 µg/disc, listed per entry for reference.
Tested on: Herpes simplex virus, type I (HSV-1)
Assay details: microbe, parasite or virus in culture
Format: cell-based
Condition description: Human alphaherpesvirus 1, in Primates; read-out: antiviral activity, HSV-1, ++ scale
Readout kind: zone of inhibition at 100 µg/disc

[
  {
    "Molecule": "NC1=NC(=O)C(C2C(CNC(=O)c3ccc[nH]3)C(CNC(=O)c3cc(Br)c[nH]3)C2c2cnc(N)[nH]2)N1 (centres unmarked) [Compound 7a, Debromooxysceptrin Acetate]",
    "Target entity": "Herpes simplex virus, type I (HSV-1)",
    "Result": "< 7 mm"
  },
  {
    "Molecule": "NC1=NC(=O)C(C2C(CNC(=O)c3cc(Br)c[nH]3)C(CNC(=O)c3cc(Br)c[nH]3)C2c2cnc(N)[nH]2)N1 (centres unmarked) [Compound 8a, Oxysceptrin Acetate]",
    "Target entity": "Herpes simplex virus, type I (HSV-1)",
    "Result": "11 to 15 mm"
  },
  {
    "Molecule": "Nc1ncc([C@@H]2[C@@H](CNC(=O)c3cc(Br)c(Br)[nH]3)[C@H](CNC(=O)c3cc(Br)c(Br)[nH]3)[C@H]2c2cnc(N)[nH]2)[nH]1 (relative stereo) [Compound 3a, Dibromosceptrin Acetate]",
    "Target entity": "Herpes simplex virus, type I (HSV-1)",
    "Result": "11 to 15 mm"
  },
  {
    "Molecule": "Nc1ncc([C@@H]2[C@@H](CNC(=O)c3cc(Br)c[nH]3)[C@H](CNC(=O)c3cc(Br)c[nH]3)[C@H]2c2cnc(N)[nH]2)[nH]1 (relative stereo) [Compound 2a, Sceptrin Acetate]",
    "Target entity": "Herpes simplex virus, type I (HSV-1)",
    "Result": "11 to 15 mm"
  },
  {
    "Molecule": "Nc1ncc(C2c3nc(N)[nH]c3CC(CNC(=O)c3cc(Br)c(Br)[nH]3)C2CNC(=O)c2cc(Br)c(Br)[nH]2)[nH]1 (centres unmarked) [Compound 6a, Dibromoageliferin Acetate]",
    "Target entity": "Herpes simplex virus, type I (HSV-1)",
    "Result": "11 to 15 mm"
  }
]
